System: UACC-257 melanoma
protocolDescription: NCI tumour cell line growth inhibition, 48 h; in the data active means GI50 below about 0.43 µM; inactive means the rest
Where a SMILES comes first, the peptide text is derived from it. [ ]: non-standard residue; d: D form. pGlu = O=C1CC[CH](C(=O)O)N1
Returns: one label drawn from t = active, f = inactive

Below, 5 molecules whose answers are already recorded.
molecule	assignedLabel
CN(CCO)CC[C@H](CSc1ccccc1)Nc1ccc(S(=O)(=O)NC(=O)c2ccc(N3CCC([C@@H](O)c4ccccc4-c4ccc(Cl)cc4)CC3)cc2)cc1S(=O)(=O)C(F)(F)F	f
Clc1nc(Cl)c2ncn(CC3(Cn4cnc5c(Cl)nc(Cl)nc54)COC3)c2n1	t
CCNC(=O)C1CCCN1C(=O)C(CCCN=C(N)N)NC(=O)C(CC(C)C)NC(=O)C(CC(C)C)NC(=O)C(Cc1ccc(O)cc1)NC(=O)C(CO)NC(=O)C(Cc1c[nH]c2ccccc12)NC(=O)C(Cc1cnc[nH]1)NC(=O)C1CCC(=O)N1 (stereo unspecified) ([pGlu]HWSYLLRP-NHEt; configuration not given here)	f
CCN(Cc1ccc(Cl)cc1)c1ccc(CO)c(Cl)c1	t
C=C1C(=O)O[C@H]2[C@H]1CC/C(CNC(=O)/C=C/c1cc(OC)c(OC)c(OC)c1)=C\CC[C@@]1(C)O[C@@H]21	f

Then there is this molecule:
Would you mind telling me which call this test gave Oc1c(-c2nnc(-c3ccccc3Cl)o2)sc2nnc(-c3ccccc3)c(-c3ccccc3)c12 ?
f

---

Tested on: MCF7 breast
protocolDescription: NCI tumour cell line growth inhibition, 48 h
Answer label 0 if TGI is under 20 µM, and label 1 if it is 20 µM or more.

Say whether COC12C=C/C(=C(/C(=O)OCc3cncnc3)C(=O)CCCCCCCCC3(OC)C=C/C(=C(/C(=O)OCc4cncnc4)C(=O)CCCCCCCC1)O3)O2 shows TGI of 20 µM or more.
label 0

Say whether CC[C@@H]1c2c(C#N)ncn2-c2cnc(Nc3ccc(C(=O)NC4CCN(C5CCN(CC6CC6)CC5)CC4)cc3OC)nc2N1C1CCCC1 shows TGI of 20 µM or more.
label 0

---

Test system: HS 578T breast
protocolDescription: NCI tumour cell line growth inhibition, 48 h
Each entry below carries its recorded TGI.
Just the number please, in µM, no unit attached.

Consider the following illustrative entries.
molecule	unitTag	valueObserved
CCc1cc2c(c3c1CCC3=O)CC1(Cc3ccc(C)cc3C1)C2 (stereo not given)	µM	86.9
C/C=C(\C)C(=O)NC1=CC[C@@]2(C)C(=CCC3C2CC[C@@]2(C)C3CC[C@@H]2C(C)N(C)C)C1=O (stereo not given in full)	µM	23.2
Fc1ccc(Oc2nc3ccc(C(F)(F)F)cc3nc2-c2ccccc2)cc1	µM	99.5
C/C(=C(/C)c1ccc(O)cc1)c1ccc(O)cc1	µM	75.6

Param readout = TGI; param system = HS 578T breast; param query = CC(=O)OCCCC(NC(=O)OC(C)(C)C)C(=O)NC(CCCOC(C)=O)C(=O)NC(Cc1ccc([N+](=O)[O-])cc1)C(=O)NCC(=O)OCc1ccccc1 (stereo not given) ; response: value
32.8

---

Each entry below carries its recorded TGI.
System: SK-MEL-28 melanoma
protocolDescription: NCI tumour cell line growth inhibition, 48 h
Just the number please, in µM, no unit attached.

smilesRecord	TGI (µM)
CCCc1cc(=O)oc2c3c(c4c(c12)OC(C)(C)CC4)O[C@@H](C)[C@H](C)[C@H]3O	42

Look up TGI for this compound: CCN(Cc1cc(Nc2nc(C)cn3c(-c4cn[nH]c4)cnc23)sn1)C(C)(C)CO
14.7

Look up TGI for this compound: N#Cc1ccc(OCc2nc(N)nc(N)c2-c2ccc(Cl)c(Cl)c2)cc1
40.2

Look up TGI for this compound: COc1ccc(-c2nn(-c3cccc(Cl)c3)cc2-c2cc(-c3cccs3)[nH]c(=S)n2)cc1
15.7

---

System: NCI/ADR-RES ovarian
protocolDescription: NCI tumour cell line growth inhibition, 48 h
measurementName: TGI

compound	TGI
CC(CC[C@@H](O)C(C)(C)O)C1[C@@H](O)CC2(C)C3CC(O)C4C(C)(C)[C@@H](OC5OC(CO)C(O)C(O)C5O)CC[C@@]45C[C@@]35CC[C@]12C (some centres undefined)	> 10 µM
COC(=O)C1CC23CCCN4CCC5(c6ccccc6N(C=O)C15CC2)C43 (centres undefined)	> 100 µM
C[C@@]1(O)C[C@@H](N2C(=O)O[C@@H](c3ccccc3)[C@H]2c2ccccc2)[C@@H]1COCc1ccccc1	64.8 µM
O=C(Nc1ccc([As](=O)(O)O)cc1)Nc1cccc(Cl)c1Cl	> 100 µM
O=c1ccn2n1Cc1ccccc1C2	> 100 µM

Look up TGI for this compound: c1ccc(-c2nnc(-c3ccccn3)c3c2C[C@@H]2C[C@@H]4Cc5c(-c6ccccn6)nnc(-c6ccccn6)c5[C@@H]4[C@H]32)nc1
> 100 µM

Look up TGI for this compound: COc1ccc(-c2nn(-c3cccc(Cl)c3)cc2-c2cc(-c3cccs3)[nH]c(=S)n2)cc1
41.8 µM

Look up TGI for this compound: CN1Cc2cc3cc4c(cc3nc2N(C)C1)OCCO4
> 100 µM

Look up TGI for this compound: C[C@]12CC[C@@H]3c4ccc(O)cc4CC[C@H]3[C@@H]1CC[C@@H]2OP(=O)(O)O
> 100 µM

---

Each entry below carries its recorded TGI.
Tested on: NCI-H226 lung
protocolDescription: NCI tumour cell line growth inhibition, 48 h

compound	TGI
CN1CCC2(CC1)ONC1=NCCN12	63.5 µM
O=[N+]([O-])c1ccc(C[P+](c2ccccc2)(c2ccccc2)c2ccccc2)cc1	> 100 µM
COC(=O)C1CC23CCCN4CCC5(c6ccccc6N(C=O)C15CC2)C43 (configuration not stated)	> 100 µM
O=C1C(Cl)=C(Nc2cccc(F)c2)C(=O)N1Cc1ccc(Cl)cc1	0.852 µM
O=C(CCCCCCNC(=O)c1cnc(N(c2ccccc2)c2ccccc2)nc1)NO	> 91.4 µM
CC1OC(OC2C(O)COC(OC3C(C)OC(OC4C(OC(=O)[C@]56CCC(C)(C)C[C@@H]5C5=CCC7[C@@]8(C)C[C@H](O)[C@H](OC9OC(CO)C(O)C(OC%10OC(CO)C(O)C(O)C%10O)C9O)[C@@](C)(CO)[C@@H]8CC[C@@]7(C)[C@]5(C)CC6)OCC(O)C4O)C(O)C3OC3OCC(O)(CO)C3O)C2O)C(O)C(O)C1O (some centres not stated)	23.4 µM
CCOC(=O)c1c(C)nc2c(c1N)CC(=O)N2Cc1ccc(OC)cc1	> 100 µM
CC12O[C@]3([C@H](C(=O)N4CCOC43C)[C@H]1Cl)[C@H]1O[C@H]12 (some centres not stated)	> 100 µM

Param readout = TGI; param system = NCI-H226 lung; param query = CN1CCN(C(=S)N(C(=O)c2ccc(Cl)cc2)c2ccccc2)CC1 ; response: value
> 100 µM

Param readout = TGI; param system = NCI-H226 lung; param query = CS(=O)(=O)OC1CCC2(C#N)CCC1C2=O (configuration not stated) ; response: value
> 100 µM

Param readout = TGI; param system = NCI-H226 lung; param query = O=c1[nH]nnc2c1ncn2C1OC(CO)C(O)C1O (configuration not stated) ; response: value
> 100 µM

Param readout = TGI; param system = NCI-H226 lung; param query = [N-]=[N+]=NC(CCl)c1cn([C@H]2C[C@H](O)[C@@H](CO)O2)c(=O)[nH]c1=O (some centres not stated) ; response: value
> 100 µM

Param readout = TGI; param system = NCI-H226 lung; param query = O=C(NCCCCNc1cccccc1=O)OCc1ccccc1 ; response: value
> 100 µM

Param readout = TGI; param system = NCI-H226 lung; param query = O=C(c1ccccc1)n1c(Cc2ccccc2)nc2cc(C34CC5CC(CC(C5)C3)C4)ccc21 ; response: value
> 100 µM

Param readout = TGI; param system = NCI-H226 lung; param query = CC(=O)NC1C(OC[C@@H](CC(=O)N[C@@H](CC(=O)O)CC(=O)N[C@H](CC(=O)N[C@@H](CCCN)CC(=O)N[C@@H](CCCN)CC(=O)N[C@H](CC(N)=O)C(C)C)C(C)C)NC(=O)C[C@@H](N)C(C)C)OC(CO)C(O)C1O (some centres not stated) ; response: value
> 100 µM

Param readout = TGI; param system = NCI-H226 lung; param query = Cc1c2ccncc2c(C)c2c1[nH]c1ccc(OC(C)C)cc12 ; response: value
3.05 µM

Param readout = TGI; param system = NCI-H226 lung; param query = O=C(O)c1n[nH][nH]c1=S ; response: value
> 100 µM

---

System: HCC-2998 colon
protocolDescription: NCI tumour cell line growth inhibition, 48 h
Each entry below carries its recorded TGI.

compound	TGI
Cc1ccc2nc3c(=O)[nH]c(=O)nc-3n(C)c2c1C	> 100 µM

Look up TGI for this compound: CN1C2=C(CC3=C1CC(C)(C)CC3=O)C(=O)CC(C)(C)C2
> 100 µM

Look up TGI for this compound: CSC(=Nc1nnc(-c2ccc([N+](=O)[O-])cc2)s1)SC
> 100 µM

Look up TGI for this compound: O=NN1C(c2ccccc2)CC(=NO)CC1c1ccccc1 (stereo not drawn)
> 100 µM

Look up TGI for this compound: C=C1C(=O)O[C@H]2[C@H]1CC/C(COC(=O)CSCSCC(=O)OC/C1=C/CC[C@@]3(C)O[C@H]3[C@H]3OC(=O)C(=C)[C@@H]3CC1)=C\CC[C@@]1(C)O[C@@H]21
3.46 µM

Look up TGI for this compound: C/C(=N\NC(=S)N1CC2CCC(CC2)C1)c1nccs1
15.9 µM

Hey, just so you know, these numbers are from PubChem BioAssay (NCI).
